Listed here: items and their measured red/green cell ratio (normalised).
assay: differential killing of epithelial or mesenchymal cells, primary screen, imaging, PC-3E GFP, TEM4-18 mCherry, co-culture (AID 1345086); details: imaging cell counts, at 1 µM, actives lie on both sides, counts scaled to control wells, 1 = unselective;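 also: normalised mesenchymal count divided by normalised epithelial count so high means epithelial killing; cells exposed to compound for 72 h before imaging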
property.measured: red/green cell ratio (normalised)

[
  {
    "test.smiles": "O=C(O)CN(CCN(CC(=O)O)CC(=O)O)CCN(CC(=O)O)CC(=O)O",
    "property.measured": "red/green cell ratio (normalised)",
    "test.value": 1.45
  },
  {
    "test.smiles": "Cn1c(=O)[nH]c2ncn(C)c2c1=O",
    "property.measured": "red/green cell ratio (normalised)",
    "test.value": 0.89
  },
  {
    "test.smiles": "CN(C)CCCOc1nn(Cc2ccccc2)c2ccccc12",
    "property.measured": "red/green cell ratio (normalised)",
    "test.value": 0.88
  },
  {
    "test.smiles": "O=C(CCCN1CCC(O)(c2ccc(Br)cc2)CC1)c1ccc(F)cc1",
    "property.measured": "red/green cell ratio (normalised)",
    "test.value": 0.73
  }
]

====

assay: viability rescue of complex I mutant cybrids, primary screen, cell-based, galactose medium, ATP luminescence (AID 1645843); conditions: complex I mutant cybrid cells, 72 h, active compounds read high;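 also: positive z means more ATP and so rescue of galactose-driven cybrid death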
The threshold is inclusive: z-score of exactly 0.5 counts as Yes; values below receive No.

[
  {
    "compound": "NC1=NCC2c3ccccc3Cc3ccccc3N12 (stereo unspecified)",
    "class.assignment": "No"
  },
  {
    "compound": "CC(C(=O)O)c1cccc(Oc2ccccc2)c1 (stereo unspecified)",
    "class.assignment": "Yes"
  },
  {
    "compound": "N[C@@H](CC(=O)O)C(=O)O",
    "class.assignment": "No"
  },
  {
    "compound": "CC1(C)CC1C(=O)NC(=CCCCCSCC(N)C(=O)O)C(=O)O (stereo unspecified)",
    "class.assignment": "Yes"
  },
  {
    "compound": "Cn1c(=O)c2c(ncn2CC2OCCO2)n(C)c1=O",
    "class.assignment": "Yes"
  },
  {
    "compound": "NCCCCN",
    "class.assignment": "Yes"
  },
  {
    "compound": "Cc1ccc(-c2ncc(Cl)cc2-c2ccc(S(C)(=O)=O)cc2)cn1",
    "class.assignment": "Yes"
  },
  {
    "compound": "NCCC(O)(P(=O)(O)O)P(=O)(O)O",
    "class.assignment": "Yes"
  },
  {
    "compound": "CCCCN1C[C@H](O)[C@@H](O)[C@H](O)[C@H]1CO",
    "class.assignment": "No"
  },
  {
    "compound": "O=C(O)Cc1ccc(OCCNC[C@H](O)c2ccccc2)cc1",
    "class.assignment": "No"
  },
  {
    "compound": "Nc1ccn([C@@H]2O[C@H](CO)[C@@H](O)C2O)c(=O)n1 (stereo partly specified)",
    "class.assignment": "No"
  },
  {
    "compound": "CCOCC(O)COc1ccc(NC(=O)CC[S+](C)C)cc1 (stereo unspecified)",
    "class.assignment": "No"
  },
  {
    "compound": "CCC(C)(C)c1ccc(CC(C)CN2C[C@@H](C)O[C@@H](C)C2)cc1 (stereo partly specified)",
    "class.assignment": "No"
  },
  {
    "compound": "COc1ccccc1O",
    "class.assignment": "Yes"
  },
  {
    "compound": "COC(=O)N[C@H](C(=O)N[C@@H](Cc1ccccc1)[C@@H](O)CN(Cc1ccc(-c2ccccn2)cc1)NC(=O)[C@@H](NC(=O)OC)C(C)(C)C)C(C)(C)C",
    "class.assignment": "No"
  }
]
